Biological target: T1, rat NGF (rat, UniProt P25427 122-241)
T1 construct: also called rN
T1 sequence (P25427 122-241 limits assumed): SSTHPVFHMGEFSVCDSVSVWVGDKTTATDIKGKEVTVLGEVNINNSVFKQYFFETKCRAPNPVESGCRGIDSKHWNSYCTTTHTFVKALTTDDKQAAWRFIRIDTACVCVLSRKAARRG
Experiment: SPR (Biacore T200), 100 nM mAb on NGF chip, similarity to parent mAb
test.readout: Percent Similarity Score (KD on rN)

Which Percent Similarity Score (KD on rN) reading was recorded for the binder can9L12VH_G33A (antibody, V domains shown) VH: EVQLVESGGDLVKPGGSLRLSCVASGFTFSSHAMHWVRQSPGKGLQWVAVINSGGSSTYYTDAVKGRFTISRDNAKNTVYLQMNSLRAEDTAMYYCAKESVGGWEQLVGPHFDYWGQGTLVIVSS VL: QSVLTQPTSVSGSLGQRVTISCSGSTNNIGILGASWYQLFPGKAPKLLVYGNGNRPSGVPDRFSGADSGDSVTLTITGLQAEDEADYYCQSFDTTLGAHVFGGGTHLTVL ?
99.9%

Item under review: can9L12VH_S31A (antibody, V domains shown) VH: EVQLVESGGDLVKPGGSLRLSCVASGFTFSAHGMHWVRQSPGKGLQWVAVINSGGSSTYYTDAVKGRFTISRDNAKNTVYLQMNSLRAEDTAMYYCAKESVGGWEQLVGPHFDYWGQGTLVIVSS VL: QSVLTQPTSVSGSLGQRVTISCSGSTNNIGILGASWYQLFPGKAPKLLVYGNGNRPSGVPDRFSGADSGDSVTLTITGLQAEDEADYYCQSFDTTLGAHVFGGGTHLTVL . Reported Percent Similarity Score (KD on rN)?
100%
